Each item that follows carries a reported IC50.
target.entity: caspase-5 (Homo sapiens (Human), UniProt P51878)
Sequence (P51878 137-327): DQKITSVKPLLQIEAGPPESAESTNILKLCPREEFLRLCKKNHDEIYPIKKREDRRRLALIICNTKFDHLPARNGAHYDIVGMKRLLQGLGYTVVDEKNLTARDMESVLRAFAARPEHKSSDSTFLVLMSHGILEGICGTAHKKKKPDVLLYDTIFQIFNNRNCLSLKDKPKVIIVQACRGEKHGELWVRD
Sequence (P51878 347-434): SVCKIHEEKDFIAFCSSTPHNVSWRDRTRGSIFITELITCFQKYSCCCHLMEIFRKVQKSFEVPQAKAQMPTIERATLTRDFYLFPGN
test.summary: Caspase-5 Inhibitor Drug Screening Kit, fluorometric enzymatic assay
experimental.parameters: read-out: Caspase enzymatic activity, IC50 (uM) Caspase 5; 30-minute incubation at 37° C., AFC liberation

The following compounds have reported results that may help.
# compound, IC50
data = [
    ("CC(C)[C@H](NC(=O)[C@H](CCC(=O)O)NC(=O)[C@H](Cc1ccc(O)cc1)NC(=O)OCc1ccccc1)C(=O)N[C@H](/C=C/S(C)(=O)=O)CC(=O)O", "> 3 µM"),
    ("CC(C)[C@H](NC(=O)[C@@H](Cc1ccc2ccccc2n1)NC(=O)[C@H](CC(=O)O)NC(=O)OCc1ccccc1)C(=O)N[C@H](/C=C/S(C)(=O)=O)CC(=O)O (stereo in doubt)", "> 10 µM"),
    ("CC(C)[C@H](NC(=O)[C@H](Cc1c[nH]c2ccccc12)NC(=O)[C@H](CC(=O)O)NC(=O)OCc1ccccc1)C(=O)N[C@H](/C=C/S(C)(=O)=O)CC(=O)O", "> 3.33 µM"),
    ("CC(C)[C@H](NC(=O)[C@H](Cc1ccc2ccccc2n1)NC(=O)[C@H](CC(=O)O)NC(=O)OCc1ccccc1)C(=O)N[C@H](/C=C/S(C)(=O)=O)CC(=O)O", "> 10 µM"),
]

Note to self: IC50 recorded for "CC(C)[C@H](NC(=O)[C@@H](NC(=O)[C@H](CC(=O)O)NC(=O)OCc1ccccc1)C1Cc2ccccc2C1)C(=O)N[C@H](/C=C/S(C)(=O)=O)CC(=O)O" was > 3.33 µM

###

Test system: Hela cells
test.summary: Inhibition of proteolytic cleavage of PARP in staurosporine-treated live Hela cells
Type: cell-based
experimental.parameters: Homo sapiens, read-out: % inhibition of PARP cleavage at 50 uM compound, staurosporine 4 hours, 50 uM compound
Description: To test the efficacy of caspase-3 inhibitors at the cellular level, the ability of selected compounds to inhibit the proteolytic cleavage of PARP (poly ADP-ribose polymerase) was evaluated in live Hela cells. Briefly, in this assay Hela cells are seeded in 96 well plates and incubated for 4 hours with staurosporine, a well characterized inducer of apoptosis, alone or together with different concentrations of compound (50, 25, 10 and 3 uM). […]
property.name: inhibition at 50 µM (%)
Write down the numeric answer in % and omit the unit.

See these solved cases before continuing.
# structure.smiles.string, target.entity, inhibition at 50 µM (%)
measured = [
    ("CC(C)[C@H](NC(=O)[C@H](CCC(=O)O)NC(=O)[C@H](CC(=O)O)NC(=O)OCc1ccccc1)C(=O)N[C@H](/C=C/S(C)(=O)=O)CC(=O)O", "Hela cells", 45),
    ("CC(C)[C@H](NC(=O)[C@H](Cc1ccc2ccccc2n1)NC(=O)[C@H](CC(=O)O)NC(=O)OCc1ccccc1)C(=O)N[C@H](/C=C/S(C)(=O)=O)CC(=O)O", "Hela cells", 40),
    ("COC(=O)C[C@@H](/C=C/S(C)(=O)=O)NC(=O)[C@@H](NC(=O)[C@@H](NC(=O)[C@H](CC(=O)OC)NC(=O)OCc1ccccc1)C1Cc2ccccc2C1)C(C)C", "Hela cells", 65),
    ("CC(C)[C@H](NC(=O)[C@H](Cc1ccc2ccccc2n1)NC(=O)[C@H](CC(=O)O)NC(=O)OCc1ccccc1)C(=O)N[C@H](/C=C/S(=O)(=O)Oc1ccccc1)CC(=O)O", "Hela cells", 30),
    ("CC(C)[C@H](NC(=O)[C@@H](NC(=O)[C@H](CC(=O)O)NC(=O)OCc1ccccc1)C1Cc2ccccc2C1)C(=O)N[C@H](/C=C/S(=O)(=O)C(C)C)CC(=O)O", "Hela cells", 30),
    ("CC(C)[C@H](NC(=O)[C@H](Cc1ccc(O)cc1)NC(=O)[C@H](CC(=O)O)NC(=O)OCc1ccccc1)C(=O)N[C@H](/C=C/S(C)(=O)=O)CC(=O)O", "Hela cells", 55),
    ("CC(C)[C@H](NC(=O)[C@H](Cc1ccccn1)NC(=O)[C@H](CC(=O)O)NC(=O)OCc1ccccc1)C(=O)N[C@H](/C=C/S(=O)(=O)c1ccccc1)CC(=O)O", "Hela cells", 40),
    ("CC(C)[C@H](NC(=O)[C@H](Cc1ccc2ccccc2n1)NC(=O)[C@H](CC(=O)O)NC(=O)OCc1ccccc1)C(=O)N[C@H](/C=C(\\Cl)S(C)(=O)=O)CC(=O)O", "Hela cells", 45),
    ("CC(C)[C@H](NC(=O)[C@H](Cc1ccc2ccccc2n1)NC(=O)[C@H](CC(=O)O)NC(=O)OCc1ccccc1)C(=O)N[C@H](/C=C/S(=O)(=O)c1ccccc1)CC(=O)O", "Hela cells", 10),
]

--- query ---
Given item "CC(C)[C@H](NC(=O)[C@H](Cc1ccc2ccccc2n1)NC(=O)[C@H](CC(=O)OC(C)(C)C)NC(=O)OCc1ccccc1)C(=O)N[C@H](/C=C/S(=O)(=O)N1CCOCC1)CC(=O)OC(C)(C)C" , the value recorded as its inhibition at 50 µM is 25

###

target.entity: caspase-9 (Homo sapiens (Human))
Sequence (P55211 1-315): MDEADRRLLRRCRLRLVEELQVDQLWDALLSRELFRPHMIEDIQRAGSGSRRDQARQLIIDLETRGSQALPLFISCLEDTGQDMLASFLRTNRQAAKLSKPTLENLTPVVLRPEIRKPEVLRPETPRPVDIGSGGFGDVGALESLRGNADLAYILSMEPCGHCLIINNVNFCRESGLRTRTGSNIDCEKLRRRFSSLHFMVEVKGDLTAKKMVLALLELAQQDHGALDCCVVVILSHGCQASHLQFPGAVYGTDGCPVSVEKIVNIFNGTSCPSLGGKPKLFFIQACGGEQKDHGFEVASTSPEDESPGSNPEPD
Sequence (P55211 331-416): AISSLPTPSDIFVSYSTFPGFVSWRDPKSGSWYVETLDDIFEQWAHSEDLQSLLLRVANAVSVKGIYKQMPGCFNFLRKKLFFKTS
test.summary: Caspase-9 Inhibitor Drug Screening Kit, fluorometric enzymatic assay
experimental.parameters: read-out: Caspase enzymatic activity, IC50 (uM) Caspase 9; 30-minute incubation at 37° C., AFC liberation
property.name: IC50

# structure.smiles.string, property.name, result
measured = [
    ("CC(C)[C@H](NC(=O)[C@@H](NC(=O)[C@H](CC(=O)O)NC(=O)OCc1ccccc1)c1ccccc1)C(=O)N[C@H](/C=C/S(C)(=O)=O)CC(=O)O", "IC50", "> 10 µM"),
    ("CC(C)[C@H](NC(=O)[C@H](Cc1ccccn1)NC(=O)[C@H](CC(=O)O)NC(=O)OCc1ccccc1)C(=O)N[C@H](/C=C/S(=O)(=O)c1ccccc1)CC(=O)O", "IC50", "> 3.33 µM"),
]

Let's switch to this molecule now.
Field IC50 (entry "CC(C)[C@H](NC(=O)[C@@H](NC(=O)[C@H](CC(=O)O)NC(=O)OCc1ccccc1)C1Cc2ccccc2C1)C(=O)N[C@H](/C=C/S(=O)(=O)C(C)C)CC(=O)O" ) reads > 3.33 µM

###

target.entity: caspase-5 (Homo sapiens (Human))
test.summary: Caspase-5 Inhibitor Drug Screening Kit, fluorometric enzymatic assay
experimental.parameters: read-out: Caspase enzymatic activity, IC50 (uM) Caspase 5; 30-minute incubation at 37° C., AFC liberation
property.name: IC50

Example entries and their recorded answers appear below.
# molecule, target.entity, IC50
measured = [
    ("CC(C)[C@H](NC(=O)[C@@H](Cc1ccc2ccccc2n1)NC(=O)[C@H](CC(=O)O)NC(=O)OCc1ccccc1)C(=O)N[C@H](/C=C/S(=O)(=O)c1ccccc1)CC(=O)O (stereo in doubt) [Compound 70]", "caspase-5 (Homo sapiens (Human))", "> 10 µM"),
    ("CC(C)[C@H](NC(=O)OCc1ccccc1)C(=O)N[C@H](/C=C/S(C)(=O)=O)CC(=O)O [Compound 61, Z-Val-Aspmethyl vinyl sulfone]", "caspase-5 (Homo sapiens (Human))", "> 3.33 µM"),
]

Now for another entry.
Entry COC(=O)C[C@@H](/C=C/S(C)(=O)=O)NC(=O)[C@@H](NC(=O)[C@@H](NC(=O)[C@H](CC(=O)OC)NC(=O)OCc1ccccc1)C1Cc2ccccc2C1)C(C)C [Compound 51] , tested on caspase-5 (Homo sapiens (Human)), has a reported IC50 of > 3 µM

###

target.entity: Caspase 3/7 (Glo3/7)
test.summary: Glo3/7 assay
property.name: IC50 (µM)

Past entries and their recorded results:
# structure.smiles.string, property.name, measure.unit, number
records = [
    ("CC(C)[C@H](NC(=O)[C@@H](NC(=O)[C@H](CC(=O)O)NC(=O)OCc1ccccc1)C1Cc2ccccc2C1)C(=O)N[C@H](/C=C/S(C)(=O)=O)CC(=O)O", "IC50", "µM", 0.1),
    ("CC(C)[C@H](NC(=O)[C@H](Cc1ccc2ccccc2n1)NC(=O)[C@H](CC(=O)O)NC(=O)OCc1ccccc1)C(=O)N[C@H](/C=C(\\Cl)S(C)(=O)=O)CC(=O)O", "IC50", "µM", 0.1),
    ("CC(C)[C@H](NC(=O)[C@H](Cc1ccc2ccccc2n1)NC(=O)[C@H](CC(=O)O)NC(=O)OCc1ccccc1)C(=O)N[C@H](/C=C/S(C)(=O)=O)CC(=O)O", "IC50", "µM", 0.1),
]

P. CC(C)[C@H](NC(=O)[C@H](Cc1ccc2ccccc2n1)NC(=O)[C@H](CC(=O)O)NC(=O)OCc1ccccc1)C(=O)N[C@H](/C=C/S(=O)(=O)c1ccccc1)CC(=O)O
Q. CC(C)[C@H](NC(=O)[C@H](Cc1ccc(O)cc1)NC(=O)[C@H](CC(=O)O)NC(=O)OCc1ccccc1)C(=O)N[C@H](/C=C/S(C)(=O)=O)CC(=O)O
R. CC(C)[C@H](NC(=O)[C@H](Cc1ccc2ccccc2n1)NC(=O)[C@H](CC(=O)O)NC(=O)OCc1ccccc1)C(=O)N[C@H](/C=C/S(=O)(=O)Oc1ccccc1)CC(=O)O
S. CC(C)[C@H](NC(=O)[C@@H](NC(=O)[C@H](CC(=O)O)NC(=O)OCc1ccccc1)c1ccccc1)C(=O)N[C@H](/C=C/S(C)(=O)=O)CC(=O)O
Hey, quick one: sort these by IC50, largest value first please. Respond with an ordered listing of the labels, as requested.
P, R, S, Q
(P: 0.9 µM, R: 0.2 µM, S: 0.1 µM, Q: 0.04 µM)
